Biological target: T1, recombinant human IL-23 (human, UniProt Q9NPF7 20-189; P29460 23-328)
T1 construct: Heterodimer of p19 and p40; also called hIL-23; interleukin-23; not shown: single C-terminal 6xHis tag
T1 sequence 1: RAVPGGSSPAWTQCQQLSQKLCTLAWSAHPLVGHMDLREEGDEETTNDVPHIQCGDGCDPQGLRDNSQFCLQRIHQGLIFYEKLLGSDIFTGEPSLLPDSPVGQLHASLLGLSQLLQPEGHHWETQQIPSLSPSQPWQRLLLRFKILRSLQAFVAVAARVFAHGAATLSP
T1 sequence 2: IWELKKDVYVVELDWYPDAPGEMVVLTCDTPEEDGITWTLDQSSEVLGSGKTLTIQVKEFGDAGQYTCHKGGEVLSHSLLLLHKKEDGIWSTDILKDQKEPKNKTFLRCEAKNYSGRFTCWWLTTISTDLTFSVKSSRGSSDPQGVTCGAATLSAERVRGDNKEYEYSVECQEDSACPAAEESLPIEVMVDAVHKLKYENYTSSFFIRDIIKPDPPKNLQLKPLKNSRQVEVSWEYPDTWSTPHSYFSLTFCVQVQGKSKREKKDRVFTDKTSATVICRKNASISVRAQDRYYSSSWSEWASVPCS
Assay: IL-23-IL-23R neutralisation ELISA
EC50 values for the binders below.

binder: ID-L253T (VHH, Optimised variant of 12G1) VHH: DVQLVESGGGQVQPGGSLSLSCESSVSIWSFKVMGWFRQVPGKQRELVATITTGGSPDYSDSVKGRFTISRDYDKRTLYLQMNSLKPEDTAVYYCAGRLWAHITSSGHDVWGQGTQVTVSS
EC50, nM: 0.23

binder: ID-L251T (VHH, Relative to ID-L253T: D1E, S19R, Q44E, L47F, D58H) VHH: EVQLVESGGGQVQPGGSLRLSCESSVSIWSFKVMGWFRQVPGKEREFVATITTGGSPHYSDSVKGRFTISRDYDKRTLYLQMNSLKPEDTAVYYCAGRLWAHITSSGHDVWGQGTQVTVSS
EC50, nM: 1.99

binder: ID-L244T (VHH, Relative to ID-L253T: D1E, S19R) VHH: EVQLVESGGGQVQPGGSLRLSCESSVSIWSFKVMGWFRQVPGKQRELVATITTGGSPDYSDSVKGRFTISRDYDKRTLYLQMNSLKPEDTAVYYCAGRLWAHITSSGHDVWGQGTQVTVSS
EC50, nM: 0.24

binder: ID-L237T (VHH, Relative to ID-L253T: D1E, V92R) VHH: EVQLVESGGGQVQPGGSLSLSCESSVSIWSFKVMGWFRQVPGKQRELVATITTGGSPDYSDSVKGRFTISRDYDKRTLYLQMNSLKPEDTARYYCAGRLWAHITSSGHDVWGQGTQVTVSS
EC50, nM: 0.24
